target: CGRP receptor (SK-N-MC cell membranes) (Homo sapiens, UniProt O60894+Q16602); construct: endogenous in cells; host or cells: SK-N-MC cells (membrane homogenate); test: CGRP Binding Assay ([125I]-CGRP radioligand binding, SK-N-MC homogenate); details: displacement of [125I]-CGRP, SK-N-MC homogenate; read-out: CGRP binding IC50
Sequence (Q16602 23-461): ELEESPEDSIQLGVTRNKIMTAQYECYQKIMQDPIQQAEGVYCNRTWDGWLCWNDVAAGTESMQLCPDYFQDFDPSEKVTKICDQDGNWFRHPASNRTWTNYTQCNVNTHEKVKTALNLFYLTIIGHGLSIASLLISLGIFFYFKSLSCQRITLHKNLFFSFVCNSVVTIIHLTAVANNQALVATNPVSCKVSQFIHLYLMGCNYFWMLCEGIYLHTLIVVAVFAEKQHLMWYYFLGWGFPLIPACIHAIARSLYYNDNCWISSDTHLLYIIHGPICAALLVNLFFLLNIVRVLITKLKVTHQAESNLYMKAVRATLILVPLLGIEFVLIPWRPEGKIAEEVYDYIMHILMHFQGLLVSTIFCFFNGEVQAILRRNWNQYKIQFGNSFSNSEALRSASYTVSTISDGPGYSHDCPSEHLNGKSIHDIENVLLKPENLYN
Sequence (O60894 27-148): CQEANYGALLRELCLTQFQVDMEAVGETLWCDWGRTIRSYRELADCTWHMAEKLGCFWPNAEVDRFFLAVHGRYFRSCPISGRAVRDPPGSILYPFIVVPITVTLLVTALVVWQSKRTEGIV
// IC50 lookup, one value per entry

* CCc1cc(CC(NC(=O)N2CCC(N3Cc4ccccc4NC3=O)CC2)C(=O)N2CCC(N3CCCCC3)CC2)cc2cn[nH]c12 (racemic) | < 10 nM
* O=C(N[C@@H](CC(=O)N1CCC(N2Cc3ccccc3NC2=O)CC1)C(=O)N1CCC(N2CCCCC2)CC1)c1cc(C(F)(F)F)cc(C(F)(F)F)c1 | 100 to 1000 nM
* O=C(N[C@@H](CC(=O)N1CCC(N2Cc3ccccc3NC2=O)CC1)C(=O)N1CCC(N2CCCCC2)CC1)Oc1ccc(Br)cc1 | 100 to 1000 nM
* CCOc1ccccc1NC(=O)N[C@@H](CC(=O)N1CCC(N2Cc3ccccc3NC2=O)CC1)C(=O)N1CCC(N2CCCCC2)CC1 | 100 to 1000 nM
* CC(=O)c1cccc(NC(=O)N[C@@H](CC(=O)N2CCC(N3Cc4ccccc4NC3=O)CC2)C(=O)N2CCC(N3CCCCC3)CC2)c1 | 100 to 1000 nM

Given the compound O=C(Nc1ccccc1)N[C@@H](CC(=O)N1CCC(N2Cc3ccccc3NC2=O)CC1)C(=O)N1CCC(N2CCCCC2)CC1 , write its reported IC50.
100 to 1000 nM

Using known records, supply IC50 for O=C(N[C@@H](CC(=O)N1CCC(N2Cc3ccccc3NC2=O)CC1)C(=O)N1CCC(N2CCCCC2)CC1)C1CC1
100 to 1000 nM

Tell me its IC50 given COC(=O)C(CC(=O)N1CCC2(CC1)OC(=O)Nc1ccccc12)Cc1cc(C)c2[nH]ncc2c1 (racemic) as the entry.
100 to 1000 nM

Give me measured IC50, please, for this compound: O=C(C[C@H](NCc1c[nH]cn1)C(=O)N1CCC(N2CCCCC2)CC1)N1CCC(N2Cc3ccccc3NC2=O)CC1
> 1000 nM

Quote IC50 reported for Cc1cc(CC(NC(=O)N2CCC3(CC2)OC(=O)Nc2ccccc23)C(=O)N(C)C)cc2cn[nH]c12 (racemic) please.
10 to 100 nM
